target: human TLR7 (Homo sapiens (Human)); test: HEK293-Blue-hTLR-7 cells assay (SEAP reporter, NF-κB activation); type: cell-based; conditions: HEK293-Blue-hTLR-7 cells, 20 hours incubation, SEAP reporter; read-out: HEK293- hTLR-7 EC50
parameter-measured: EC50 (µM)
Give just the numeric value; µM need not be written.

See these solved cases before continuing.
What EC50 value was documented for this molecule, CCC(O)[C@@H]1C[C@@H](O)[C@H](n2c(=O)sc3c(=O)[nH]c(N)nc32)O1 (single isomer, unassigned) [Example 1-A] ?
52

And what about the molecule C[C@@H]1C[C@@H]([C@@H](O)C2CC2)O[C@H]1n1c(=O)sc2c(=O)[nH]c(N)nc21 [Example 30] ?
15

Further cases:
What EC50 value was documented for this molecule, CC#CC(O)[C@@H]1C[C@@H](O)[C@H](n2c(=O)sc3c(=O)[nH]c(N)nc32)O1 (single isomer, unassigned) [Example 19-A] ?
38

And what about the molecule CC#C[C@H](O)[C@@H]1C[C@@H](C)[C@H](n2c(=O)sc3c(=O)[nH]c(N)nc32)O1 [Example 29] ?
29

And what about the molecule CS[C@@H]1C[C@@H](CO)O[C@H]1n1c(=O)sc2c(=O)[nH]c(N)nc21 [Example 39] ?
62

###

Target: human TLR7 (Homo sapiens (Human), UniProt Q9NYK1)
Sequence (Q9NYK1 27-1049): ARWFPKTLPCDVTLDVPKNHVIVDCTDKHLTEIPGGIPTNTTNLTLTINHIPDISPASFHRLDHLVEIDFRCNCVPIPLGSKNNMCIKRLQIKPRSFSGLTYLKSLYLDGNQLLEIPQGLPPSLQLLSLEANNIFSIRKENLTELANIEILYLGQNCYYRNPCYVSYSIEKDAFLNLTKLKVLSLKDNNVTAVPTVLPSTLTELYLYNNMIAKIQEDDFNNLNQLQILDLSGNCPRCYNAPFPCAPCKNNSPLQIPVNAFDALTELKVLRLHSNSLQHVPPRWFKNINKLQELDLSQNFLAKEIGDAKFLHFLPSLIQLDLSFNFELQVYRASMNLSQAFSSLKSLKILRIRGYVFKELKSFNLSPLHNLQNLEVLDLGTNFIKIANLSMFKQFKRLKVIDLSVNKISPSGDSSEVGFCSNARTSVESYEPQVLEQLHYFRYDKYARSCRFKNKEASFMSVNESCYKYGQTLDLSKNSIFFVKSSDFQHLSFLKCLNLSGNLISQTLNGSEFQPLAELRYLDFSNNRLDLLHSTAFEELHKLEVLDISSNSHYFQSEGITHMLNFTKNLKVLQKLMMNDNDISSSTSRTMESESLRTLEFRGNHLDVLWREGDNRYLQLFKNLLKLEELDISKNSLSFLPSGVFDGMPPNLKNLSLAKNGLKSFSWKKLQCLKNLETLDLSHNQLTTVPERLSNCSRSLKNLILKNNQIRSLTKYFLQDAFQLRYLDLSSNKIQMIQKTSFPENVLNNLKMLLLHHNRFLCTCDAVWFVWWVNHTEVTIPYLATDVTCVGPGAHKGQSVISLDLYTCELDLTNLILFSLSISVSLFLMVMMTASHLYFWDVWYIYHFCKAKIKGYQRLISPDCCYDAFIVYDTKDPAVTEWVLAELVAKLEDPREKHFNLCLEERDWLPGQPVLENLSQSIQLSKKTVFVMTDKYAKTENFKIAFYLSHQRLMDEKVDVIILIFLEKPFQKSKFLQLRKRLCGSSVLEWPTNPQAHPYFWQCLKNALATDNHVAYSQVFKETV
Assay: HEK293-Blue-hTLR-7 cells assay (SEAP reporter, NF-κB activation)
Assay type: cell-based
Conditions: HEK293-Blue-hTLR-7 cells, 20 hours incubation, SEAP reporter; read-out: HEK293- hTLR-7 EC50
Protocol: HEK293-Blue-hTLR-7 Cells Assay: A stable HEK293-Blue-hTLR-7 cell line was purchased from InvivoGen (Cat.#: hkb-htlr7, San Diego, Calif., USA). These cells were designed for studying the stimulation of human TLR7 by monitoring the activation of NF-κB. […] Then 20 μL of the supernatant from each well was incubated with 180 μL Quanti-blue substrate solution at 37° C. for 2 hours and the absorbance was read at 620˜655 nm using a spectrophotometer. […]
parameter-measured: EC50 (µM)
Give just the numeric value; µM need not be written.

Notebook entry, human TLR7 (Homo sapiens (Human), UniProt Q9NYK1) assay: EC50 of CC[C@H](OC(=O)C(C)C)[C@@H]1C[C@@H](O)[C@H](n2c(=O)sc3c(=O)[nH]c(N)nc32)O1 = ?
51

And what about the compound C=CC[C@@H]1C[C@@H](C(O)CC)O[C@H]1n1c(=O)sc2c(=O)[nH]c(N)nc21 (stereo partly shown) [Example 26] ?
29

And what about the compound C=CC[C@@H]1C[C@@H](C(O)CC)O[C@H]1n1c(=O)sc2c(=O)[nH]c(N)nc21 (single isomer, unassigned) [Example 26-A] ?
12

And what about the compound C=CC(O)[C@@H]1C[C@@H](O)[C@H](n2c(=O)sc3c(=O)[nH]c(N)nc32)O1 (single isomer, unassigned) ?
70

And what about the compound C[C@H](O)[C@@H]1C[C@@H](C)[C@H](n2c(=O)sc3c(=O)[nH]c(N)nc32)O1 ?
70

And what about the compound Nc1nc2c(sc(=O)n2[C@@H]2O[C@H](CO)C[C@H]2N2CCCC2)c(=O)[nH]1 ?
67

Next, consider the following compound.
Notebook entry, human TLR7 (Homo sapiens (Human), UniProt Q9NYK1) assay: EC50 of CCC(O)[C@@H]1C[C@@H](N=[N+]=[N-])[C@H](n2c(=O)sc3c(=O)[nH]c(N)nc32)O1 (single isomer, unassigned) = ?
26

###

target: murine TLR7 (Mus musculus (Mouse), UniProt P58681); test: HEK293-Blue-mTLR7 cell assay (SEAP reporter); details: HEK293-Blue-mTLR7 cells, 20 hours incubation; read-out: EC50 of murine TLR7 activation
Sequence (P58681 27-1050 limits assumed): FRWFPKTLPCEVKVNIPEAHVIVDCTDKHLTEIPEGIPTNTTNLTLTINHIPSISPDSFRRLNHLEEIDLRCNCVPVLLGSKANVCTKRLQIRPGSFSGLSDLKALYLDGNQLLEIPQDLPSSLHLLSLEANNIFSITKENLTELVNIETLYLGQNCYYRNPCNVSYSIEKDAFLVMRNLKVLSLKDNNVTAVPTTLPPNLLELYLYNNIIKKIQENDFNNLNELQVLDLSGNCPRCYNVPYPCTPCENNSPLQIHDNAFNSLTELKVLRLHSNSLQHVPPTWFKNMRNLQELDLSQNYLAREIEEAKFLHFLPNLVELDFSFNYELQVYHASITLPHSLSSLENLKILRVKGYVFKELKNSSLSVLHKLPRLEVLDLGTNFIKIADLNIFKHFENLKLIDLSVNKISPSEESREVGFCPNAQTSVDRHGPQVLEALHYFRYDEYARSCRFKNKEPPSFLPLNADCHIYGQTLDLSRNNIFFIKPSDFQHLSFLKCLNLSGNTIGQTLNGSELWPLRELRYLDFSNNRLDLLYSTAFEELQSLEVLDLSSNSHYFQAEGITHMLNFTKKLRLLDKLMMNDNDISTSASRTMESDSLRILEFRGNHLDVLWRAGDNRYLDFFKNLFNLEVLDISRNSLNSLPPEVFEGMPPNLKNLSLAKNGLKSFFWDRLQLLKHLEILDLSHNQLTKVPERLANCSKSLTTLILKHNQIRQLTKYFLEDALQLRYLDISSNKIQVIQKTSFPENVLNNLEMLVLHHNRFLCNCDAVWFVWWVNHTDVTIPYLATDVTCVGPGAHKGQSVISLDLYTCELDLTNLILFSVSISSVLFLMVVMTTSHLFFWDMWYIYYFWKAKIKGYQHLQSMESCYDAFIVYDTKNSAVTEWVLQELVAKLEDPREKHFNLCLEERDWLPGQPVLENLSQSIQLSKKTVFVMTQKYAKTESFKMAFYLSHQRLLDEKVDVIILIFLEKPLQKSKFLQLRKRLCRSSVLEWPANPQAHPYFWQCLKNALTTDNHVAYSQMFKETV
parameter-measured: pEC50
In plain terms, pEC50 is the concentration in mol/L turned into minus its base-10 logarithm.

What pEC50 value was documented for this molecule, CCC(O)[C@@H]1C[C@@H](O)[C@H](n2c(=O)sc3c(=O)[nH]c(N)nc32)O1 (single isomer, unassigned) ?
4.14

###

target: human TLR7 (Homo sapiens (Human), UniProt Q9NYK1); test: HEK293-Blue-hTLR-7 cells assay (SEAP reporter, NF-κB activation); assay type: cell-based; conditions: HEK293-Blue-hTLR-7 cells, 20 hours incubation, SEAP reporter; read-out: HEK293- hTLR-7 EC50
Measured EC50 of individual entries
Give just the numeric value; µM need not be written.

See these solved cases before continuing.
What EC50 value was documented for this compound, C#CC(O)[C@@H]1C[C@@H](O)[C@H](n2c(=O)sc3c(=O)[nH]c(N)nc32)O1 (single isomer, unassigned) [Example 18-A] ?
12

And what about the compound C=CCC(O)[C@@H]1C[C@@H](O)[C@H](n2c(=O)sc3c(=O)[nH]c(N)nc32)O1 (single isomer, unassigned) [Example 8-A] ?
87

And what about the compound Nc1nc2c(sc(=O)n2[C@@H]2O[C@H](CO)C[C@H]2O)c(=O)[nH]1 [ANA-122, reference compound] ?
446

And what about the compound CCC[C@@H]1C[C@@H]([C@@H](O)CC)O[C@H]1n1c(=O)sc2c(=O)[nH]c(N)nc21 [Example 27-A] ?
15

And what about the compound Nc1nc2c(sc(=O)n2[C@@H]2O[C@H](C(O)C3CC3)C[C@H]2O)c(=O)[nH]1 (single isomer, unassigned) [Example 14-A] ?
48

Further cases:
What EC50 value was documented for this compound, CCCC(O)[C@@H]1C[C@@H](O)[C@H](n2c(=O)sc3c(=O)[nH]c(N)nc32)O1 (single isomer, unassigned) [Example 10-A] ?
63

And what about the compound CCC(O)[C@@H]1C[C@@H](SC)[C@H](n2c(=O)sc3c(=O)[nH]c(N)nc32)O1 (single isomer, unassigned) [Example 22-A] ?
14
